Values were extracted from ChEMBL document CHEMBL4613297.

# systemUnderTest: Human immunodeficiency virus type 1 reverse transcriptase (Human immunodeficiency virus 1)
# method: Inhibition of recombinant HIV-1 BH10 reverse transcriptase p51/p66 expressed in Escherichia coli preincubated for 10 mins followed by D38/25PGA template-primer addition and measured after 10 to 30 secs by denaturing PAGE based single nucleotide incorporation assay
# Parameters: species or system Human immunodeficiency virus type 1 BH10
pIC50: −log10 of the molar value.
recordedEndpoint: pIC50

Data request: Give the measured pIC50 of H-IPSINNETPGI-OH .
Data returned: < 3.84

----------
# systemUnderTest: Human immunodeficiency virus type 1 reverse transcriptase (Human immunodeficiency virus 1, UniProt Q72547)
# method: Inhibition of HIV-1 reverse transcriptase His-tagged p51 heterodimerization with HIV-1 reverse transcriptase p66 incubated for 16 hrs by ELISA
pIC50: −log10 of the molar value.
recordedEndpoint: pIC50

Data request: Give the measured pIC50 of H-IPSINNETPGI-OH .
Data returned: < 3.82

----------
# systemUnderTest: Human immunodeficiency virus type 1 reverse transcriptase (Human immunodeficiency virus 1)
# method: Inhibition of recombinant HIV-1 group M subtype B reverse transcriptase p51/p66 expressed in Escherichia coli M15 assessed as change in melting temperature at 100 uM incubated for 1 hr by sypro orange dye based differential scanning fluorimetric analysis
# conditions: HIV-1 M:B
Where a SMILES comes first, the peptide text is derived from it. Bridges are numbered along the chain shown (N, C = ends).
recordedEndpoint: ΔTm (°C)
Reply numerically in °C, unit not repeated.

Data request: Give the measured ΔTm of CC[C@H](C)[C@@H]1NC(=O)[C@@H](N)CSSC[C@@H](C(=O)O)NC(=O)[C@H](CCC(=O)O)NC(=O)[C@H](CC(N)=O)NC(=O)[C@H](CC(N)=O)NC1=O (H-CINNEC-OH; disulfide 1-6) .
Data returned: -15.8

Data request: Give the measured ΔTm of CC[C@H](C)[C@@H]1NC(=O)[C@H](CO)NC(=O)[C@H](N)CSSC[C@@H](C(=O)O)NC(=O)[C@@H]2CCCN2C(=O)[C@H]([C@@H](C)O)NC(=O)[C@H](CCC(=O)O)NC(=O)[C@H](CC(N)=O)NC(=O)[C@H](CC(N)=O)NC1=O .
Data returned: -15.8

Data request: Give the measured ΔTm of Cc1cn([C@@H]2O[C@H](CO[Si](C)(C)C(C)(C)C)[C@]3(C=CS(=O)(=O)O3)[C@H]2O[Si](C)(C)C(C)(C)C)c(=O)[nH]c1=O .
Data returned: -1.4

Data request: Give the measured ΔTm of CC[C@H](C)[C@H](NC(=O)CNC(=O)[C@@H]1CCCN1C(=O)[C@@H](NC(=O)[C@H](CCC(=O)O)NC(=O)[C@H](CC(N)=O)NC(=O)[C@H](CC(N)=O)NC(=O)[C@@H](NC(=O)[C@H](CO)NC(=O)[C@@H]1CCCN1C(=O)[C@@H](NC(=O)[C@@H](NC(=O)[C@@H](N)Cc1ccccc1)[C@@H](C)O)[C@@H](C)CC)[C@@H](C)CC)C(C)O)C(=O)N[C@@H](CCCNC(=N)N)C(=O)N[C@@H](Cc1ccc(O)cc1)C(=O)O (single isomer, unassigned) .
Data returned: -15.6

Data request: Give the measured ΔTm of CC[C@H](C)[C@@H]1NC(=O)CNC(=O)[C@@H]2CCCN2C(=O)[C@H]([C@@H](C)O)NC(=O)C(CCC(=O)O)NC(=O)[C@H](CC(N)=O)NC(=O)C(CC(N)=O)NC(=O)[C@@H]([C@@H](C)CC)NC(=O)[C@H](CO)NC(=O)[C@@H]2CCCN2C(=O)[C@H]([C@@H](C)CC)NC(=O)[C@@H](N)CSSC[C@@H](C(=O)O)NC1=O (stereo not given in full) .
Data returned: -14.5
